Test: yeast display, Sf9 membrane polyspecificity reagent, FACS + sequencing; frameworks hold sequencing errors
endpoint: polyreactivity (PSR sort gate)

[[record]]
biosequence = "QVQLVQSGGGLVQAGGSLRLSCAASGRIFRYYGMGWYRQAPGKERELVAAISWNSGSTYYADSVKGRFTISRDNAKNTVYLQMNSLKPEDTAVYYCNKVLFISGYVRNYGEYEYWGQGTQVTVSS"
value_reported = "high polyreactivity"

[[record]]
biosequence = "QVQLVESGGGLVQAGGSLRLSCAASGRTFLPNDMGWSIQAPGKERELVAAITDSGGDTYYADSVKGRFTISRDNAKNTVYLQMNSLKPEDTAVYYCAADYYYYGSYYPVEYWGQGTQVTVSS"
value_reported = "high polyreactivity"

[[record]]
biosequence = "QVQLVESGGGLVQAGGSLRLSCAASGSIFRIYAMGGYRQAPGKERELVAAITGRGGSTYYADSVKGRFTISRDNAKNTVYLQRNSLKPEDTAVYYCAAEERYAYRYDYWGQATQVTVSS"
value_reported = "high polyreactivity"

[[record]]
biosequence = "QVQLVESGGGLVQAGGSLRLSSAASGRIFYRNAMGWYRQAPGKEREMVAAINWSGGSTYYADSVKGRFTISRDNAKNSVYLQMNSLKPEDTAVYYCAAKPGKTPLTGDRGPYDTGYGYWGQGTQVTVSS"
value_reported = "low polyreactivity"

[[record]]
biosequence = "QVQLVESGGGLVQAGGSLRLSCAASGLTFRYYTMGLYRQAPGKERELVASITSGGITYYADSVKGRFTISRDNAKNTVYLQMYSLKPEDTAVYYCAKGSYRTTYGALGVKYGYWGQGTQVNVSS"
value_reported = "high polyreactivity"

[[record]]
biosequence = "QVQLVESGGGLDQAGGSLRLSCAASGSTFDVYAMGRYRQAPGKVRELVAAISRSGGSTYYADSVKGRFTISRDYAKNNVYLQMYSLKPEDTAVYYCNARLARWGSYEYNYWGQGTQVTVSS"
value_reported = "low polyreactivity"

[[record]]
biosequence = "QVQLVESGGGLVQARGSLRLSCAASGSIFAYNAMGWYRQAPGKERELVARISNRSGRTYYADSVKGRFTISRDNAKNTVYLLMNSLKPEDTAVYYCGVVAGLGTYRRYGYCGQGTQVTVSS"
value_reported = "high polyreactivity"

[[record]]
biosequence = "QVQLVESGGGLVQAGGSLLLSCAASGSTFGYNTMGWYRQAPGKERELVAAINYSGGRTYYADSVKGRFTISRDYAMNTVYLQMNSQKPEDTAVYYCNALSYPSRVYDAYDYWGQGTQVTVSS"
value_reported = "high polyreactivity"

[[record]]
biosequence = "QVQLVESGGGLVQAGGSLRLSCAASGFIFAPNAMGWYRQAPGKERELVAAISHSGASTFYADSVKGRFTISRDNAKNTVYLQMNSLKPEDTAVYYCAAPPYYSYDYWGQGTQVTVSS"
value_reported = "low polyreactivity"

[[record]]
biosequence = "QGQLVESGGGLVQAGGSLRLSCAASGGIFGNYAMGGYRQAPGKERELVAVIDSSDGSTHYADSVKGRFSISRDNAKTTVYLQINSLKAEDTAVYYCATLGFWNYWTFDYWGQGTQVTVSS"
value_reported = "low polyreactivity"

[[record]]
biosequence = "QVQLVESGGGLVQAGGSLRLSCAASGRTFFYNAMGWYRQAPGKERELVAAIDWSGDSTYYADSVKGRFTISRDNAKNTVYLQMNSLKPEDTAVYYCAADGGQVDDSATRLYYWGQGTQVTVSS"
value_reported = "high polyreactivity"

